System: PCTK2
Construct: gene CDK17
Measurement context: concentration: 1 μM, replicates: in singlicate; n = 1;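 also: KINOMEscan kinase panel screen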
Measurement name: %Inh (%)

[[record]]
compound = "COc1ccc(-c2oc3ncnc(N)c3c2-c2ccc(OC)cc2)cc1"
measurement_name = "%Inh"
observed_value = 0

[[record]]
compound = "CCc1nc(-c2cccc(N(C)S(=O)(=O)c3ccccc3)c2)c(-c2ccnc(Nc3ccc(N4CCN(C(C)=O)CC4)nc3)n2)s1"
measurement_name = "%Inh"
observed_value = 24

[[record]]
compound = "COC(=O)c1cccc(NC(=O)NCCNc2ccnc(Nc3ccc(F)cc3)n2)c1"
measurement_name = "%Inh"
observed_value = 0

[[record]]
compound = "FC(F)(F)c1ccc(-c2cc(-c3c[nH]nc3-c3ccccn3)ccn2)cc1"
measurement_name = "%Inh"
observed_value = 11

[[record]]
compound = "Fc1ccc(-c2ncn(CCCNCc3ccccc3)c2-c2ccncc2)cc1"
measurement_name = "%Inh"
observed_value = 0

[[record]]
compound = "FC(F)(F)c1cc(Nc2nccc(-c3c(-c4ccc(Cl)cc4)nn4ncccc34)n2)ccc1Cl"
measurement_name = "%Inh"
observed_value = 0

[[record]]
compound = "COc1cc2ncnc(Nc3ccc(OCc4ccccc4Br)c(Cl)c3)c2cc1OC.Cl"
measurement_name = "%Inh"
observed_value = 0

[[record]]
compound = "COc1ccc(Nc2nccc(N3CCC(NC(=O)Nc4ccc5c(c4)OCO5)C3)n2)cc1 (centres unmarked)"
measurement_name = "%Inh"
observed_value = 17


###

System: TNIK
Measurement context: concentration: 1 μM, replicates: in singlicate; n = 1
Let's look at some compounds and their measured %Inh.
Measurement name: %Inh

[[record]]
compound_structure = "FC(F)(F)c1ccc(-c2cc(-c3c[nH]nc3-c3ccccn3)ccn2)cc1"
measurement_name = "%Inh"
observed_value = "78%"

[[record]]
compound_structure = "Cn1ccc2ncnc(Oc3ccc(NC(=O)Nc4cccnc4)c(Cl)c3)c21"
measurement_name = "%Inh"
observed_value = "1%"

[[record]]
compound_structure = "COc1ccc(-c2oc3ncnc(N)c3c2-c2ccc(OC)cc2)cc1"
measurement_name = "%Inh"
observed_value = "0%"

[[record]]
compound_structure = "CCc1nc(-c2cccc(N(C)S(=O)(=O)c3ccccc3)c2)c(-c2ccnc(Nc3ccc(N4CCN(C(C)=O)CC4)nc3)n2)s1"
measurement_name = "%Inh"
observed_value = "4%"

[[record]]
compound_structure = "Cc1ccc(NC(=O)c2cccc(C#N)c2)cc1-c1ccc(C(=O)Nc2ccncc2)cc1"
measurement_name = "%Inh"
observed_value = "13%"

[[record]]
compound_structure = "FC(F)(F)c1cc(Nc2nccc(-c3c(-c4ccc(Cl)cc4)nn4ncccc34)n2)ccc1Cl"
measurement_name = "%Inh"
observed_value = "12%"

[[record]]
compound_structure = "Cn1ccc2ncnc(Nc3ccc(Oc4cccc(Cl)c4)c(Cl)c3)c21"
measurement_name = "%Inh"
observed_value = "17%"

[[record]]
compound_structure = "Cc1cccc(-c2nc(Nc3ccc4[nH]nnc4c3)c3ccccc3n2)n1"
measurement_name = "%Inh"
observed_value = "0%"


###

Below: a set of entries, each annotated with reported %Inh.
System: MYLK
Measurement context: concentration: 1 μM, replicates: in singlicate; n = 1
Measurement name: %Inh (%)

[[record]]
molecule = "Clc1cccc(-c2nc(Nc3ccncc3)c3ccccc3n2)c1"
target = "MYLK"
observed_value = 0

[[record]]
molecule = "Fc1cccc(COc2ccc(Nc3ncnc4nn5ccccc5c34)cc2Cl)c1"
target = "MYLK"
observed_value = 0

[[record]]
molecule = "Cn1ccc2ncnc(Nc3ccc(Oc4cccc(Cl)c4)c(Cl)c3)c21"
target = "MYLK"
observed_value = 0

[[record]]
molecule = "O=C(NCCCN1CCCC1=O)c1cnc(NCc2cc(Cl)ccc2Cl)nc1NC1CCNCC1"
target = "MYLK"
observed_value = 11

[[record]]
molecule = "CCC(CC)(CC)n1cnc2c(N)ncnc21"
target = "MYLK"
observed_value = 0

[[record]]
molecule = "CCCc1ccc(S(=O)(=O)NC2CCN(c3ccnc(Nc4ccc(OC)cc4)n3)C2)cc1 (stereo not drawn)"
target = "MYLK"
observed_value = 30

[[record]]
molecule = "Cl.Cl.c1ccc(-c2cc3ccncc3cc2OC2CCNCC2)cc1"
target = "MYLK"
observed_value = 25

[[record]]
molecule = "CS(=O)(=O)CCNCc1ccc(-c2ccc3ncnc(Nc4ccc(OCc5ccccc5)c(Cl)c4)c3c2)o1.Cl"
target = "MYLK"
observed_value = 7

[[record]]
molecule = "Cn1cc(-c2ccc3c(c2)CCN3C(=O)Cc2cccc(C(F)(F)F)c2)c2c(N)ncnc21"
target = "MYLK"
observed_value = 1


###

System: NEK5
Measurement context: concentration: 1 μM, replicates: in singlicate; n = 1
Measurement name: %Inh (%)

[[record]]
compound = "Fc1cccc(COc2ccc(Nc3ncnc4nn5ccccc5c34)cc2Cl)c1 [GW689066]"
units = "%"
observed_value = 0

[[record]]
compound = "Cl.c1ccc(Cn2ncc3cc(Nc4ncnc5ccccc45)ccc32)cc1 [GW273749]"
units = "%"
observed_value = 18

[[record]]
compound = "Cc1ccc(C)c(NC(=O)NCCNc2ccnc(Nc3ccc(F)cc3)n2)c1 [GSK1379878]"
units = "%"
observed_value = 3

[[record]]
compound = "CN1CCC(n2cnc(-c3ccc(F)cc3)c2-c2ccnc(NC3CCNCC3)n2)CC1 [SB-229482]"
units = "%"
observed_value = 0

[[record]]
compound = "c1ccc(-c2ccc3c(-c4ccnc(Nc5ccc6c(c5)OCCO6)n4)cnn3n2)cc1 [GW818941]"
units = "%"
observed_value = 14

[[record]]
compound = "Nc1nc(-c2ccc3c(N)n[nH]c3c2)cc(N2CCC[C@@H](C(=O)Nc3ccccc3)C2)n1.O=C(O)C(F)(F)F.O=C(O)C(F)(F)F [GSK2288359]"
units = "%"
observed_value = 13

[[record]]
compound = "Cl.c1ccc(Cn2ccc3cc(Nc4ncnc5ccccc45)ccc32)cc1 [GW275568]"
units = "%"
observed_value = 28

[[record]]
compound = "Fc1ccc(Nc2nccc(-c3c(-c4ccc(Cl)cc4)nn4ncccc34)n2)cc1F [GW829058]"
units = "%"
observed_value = 13


###

Tested on: MST3
Construct: gene STK24
Measurement context: concentration: 1 μM, replicates: in singlicate; n = 1
Measured %Inh accompanies every entry in the list below.
Measurement name: %Inh (%)

[[record]]
compound_structure = "COc1ccc(NC(=O)Nc2ccc(C)c(-c3ccc(C(=O)Nc4ccncc4)cc3)c2)cc1"
target = "MST3"
units = "%"
observed_value = 0

[[record]]
compound_structure = "COc1ccc(-c2oc3ncnc(N)c3c2-c2ccc(OC)cc2)cc1"
target = "MST3"
units = "%"
observed_value = 0

[[record]]
compound_structure = "Fc1ccc(-c2ncn(CCCNCc3ccccc3)c2-c2ccncc2)cc1"
target = "MST3"
units = "%"
observed_value = 11

[[record]]
compound_structure = "Cl.O=S(=O)(c1cccc(F)c1)c1ccc(Nc2ncnc3cc(Br)sc23)cc1Cl"
target = "MST3"
units = "%"
observed_value = 2

[[record]]
compound_structure = "N#Cc1ccc(Oc2ccc(Nc3ncnc4cc[nH]c34)cc2Cl)cc1"
target = "MST3"
units = "%"
observed_value = 24


###

Test system: GRK2
Construct: gene ADRBK1
Measurement context: concentration: 1 μM, replicates: in singlicate; n = 1
The following compounds are shown together with reported %Inh values.
Measurement name: %Inh (%)

[[record]]
compound = "Fc1cccc(COc2ccc(Nc3ncnc4sc(-c5ccc[nH]5)cc34)cc2Cl)c1"
observed_value = 0

[[record]]
compound = "Cn1ccc2ncnc(Nc3ccc(Oc4cccc(Cl)c4)c(Cl)c3)c21"
observed_value = 51

[[record]]
compound = "Cl.Cl.c1ccc(-c2cc3ccncc3cc2OC2CCNCC2)cc1"
observed_value = 0

[[record]]
compound = "Clc1cccc(-c2nc(Nc3ccncc3)c3ccccc3n2)c1"
observed_value = 0

[[record]]
compound = "O=c1cc(N2CCOCC2)nc2n(Cc3cccc(Cl)c3)ccn12"
observed_value = 0

[[record]]
compound = "Oc1ccc2ncnc(Nc3ccc(OCc4ccccc4)cc3)c2c1"
observed_value = 0

[[record]]
compound = "CC(C)N1CCC(n2cnc(-c3ccc(F)cc3)c2-c2ccnc(N)n2)CC1"
observed_value = 0

[[record]]
compound = "COc1ccc(NC(=O)c2ccc(-c3cc(-c4nnc(C)o4)ccc3C)cc2)cc1"
observed_value = 0

[[record]]
compound = "Cl.c1ccc(Cn2ncc3cc(Nc4ncnc5ccccc45)ccc32)cc1"
observed_value = 0

[[record]]
compound = "O=C(Nc1ccccc1F)NC1CCN(c2ccnc(Nc3ccc(F)cc3)n2)C1 (stereo not drawn)"
observed_value = 0

[[record]]
compound = "Cc1ccc(O)cc1Nc1cc(C(F)(F)F)nc2ccc(-c3ccncc3)cc12"
observed_value = 0

[[record]]
compound = "CCc1nc(-c2cccc(C)c2)c(-c2ccnc(NC(=O)c3ccccc3)c2)s1"
observed_value = 25

[[record]]
compound = "FC(F)(F)c1ccc(-c2cc(-c3c[nH]nc3-c3ccccn3)ccn2)cc1"
observed_value = 0

[[record]]
compound = "N#Cc1ccc(Oc2ccc(Nc3ncnc4cc[nH]c34)cc2Cl)cc1"
observed_value = 0

[[record]]
compound = "Nc1n[nH]c2nnc(-c3ccccc3)cc12"
observed_value = 0

[[record]]
compound = "FC(F)(F)c1cc(Nc2nccc(-c3c(-c4ccc(Cl)cc4)nn4ncccc34)n2)ccc1Cl"
observed_value = 0

[[record]]
compound = "COc1ccc(-c2oc3ncnc(N)c3c2-c2ccc(OC)cc2)cc1"
observed_value = 0

[[record]]
compound = "O=C(CCO)NCCn1ccc2ncnc(Nc3ccc(Oc4cccc(C(F)(F)F)c4)c(Cl)c3)c21"
observed_value = 0

[[record]]
compound = "Clc1cc(Nc2ncnc3cc[nH]c23)ccc1OCc1ccccn1"
observed_value = 0

[[record]]
compound = "COc1ccc(NC(=O)Nc2ccc(C)c(-c3ccc(C(=O)Nc4ccncc4)cc3)c2)cc1"
observed_value = 0

[[record]]
compound = "Clc1ccc(-c2cc(-c3c[nH]nc3-c3ccccn3)ccn2)cc1"
observed_value = 0

[[record]]
compound = "CCC(CC)(CC)n1cnc2c(N)ncnc21"
observed_value = 16

[[record]]
compound = "O=C(c1ccc(-c2cc(-c3c[nH]nc3-c3ccccn3)ccn2)cc1)N1CCCC1"
observed_value = 0

[[record]]
compound = "Nc1nc(-c2ccccn2)c(-c2ccnc3ccccc23)s1"
observed_value = 0

[[record]]
compound = "Cl.Fc1ccccc1COc1ccc(Nc2ncnc3ccc(-c4nnc(C(F)(F)F)o4)cc23)cc1Cl"
observed_value = 0

[[record]]
compound = "COc1cc2ncnc(Nc3ccc(OCc4ccccc4Br)c(Cl)c3)c2cc1OC.Cl"
observed_value = 0

[[record]]
compound = "Cl.c1ccc(Cn2ccc3cc(Nc4ncnc5ccccc45)ccc32)cc1"
observed_value = 0

[[record]]
compound = "CN1c2ccc(-c3ccc(C(=O)NCCO)cc3)cc2-c2[nH]ncc2S1(=O)=O"
observed_value = 0

[[record]]
compound = "Nc1nc(-c2cccnc2)c(-c2ccnc3ccccc23)s1"
observed_value = 1

[[record]]
compound = "Cc1cccc(-c2nc(Nc3ccc4[nH]nnc4c3)c3ccccc3n2)n1"
observed_value = 0

[[record]]
compound = "Cn1ccc2ncnc(Oc3ccc(NC(=O)Nc4cccnc4)c(Cl)c3)c21"
observed_value = 0

[[record]]
compound = "COc1ccc(Nc2nccc(N3CCC(NC(=O)c4cccc(NC(C)=O)c4)C3)n2)cc1 (stereo not drawn)"
observed_value = 2

[[record]]
compound = "CC(=O)Nc1n[nH]c2ncc(-c3ccccc3)cc12"
observed_value = 0

[[record]]
compound = "Nc1nc(-c2ccc3c(N)n[nH]c3c2)cc(N2CCC[C@@H](C(=O)Nc3ccccc3)C2)n1.O=C(O)C(F)(F)F.O=C(O)C(F)(F)F"
observed_value = 0

[[record]]
compound = "CCCc1ccc(S(=O)(=O)NC2CCN(c3ccnc(Nc4ccc(OC)cc4)n3)C2)cc1 (stereo not drawn)"
observed_value = 0

[[record]]
compound = "CNc1nccc(-c2c(-c3ccc(F)cc3)ncn2CCCN2CCOCC2)n1"
observed_value = 0

[[record]]
compound = "CS(=O)(=O)CCNCc1nc(-c2ccc3ncnc(Nc4ccc(OCc5cccc(F)c5)c(Cl)c4)c3c2)cs1.Cl"
observed_value = 0

[[record]]
compound = "Cc1ccc(NC(=O)c2cccc(C#N)c2)cc1-c1ccc(C(=O)Nc2ccncc2)cc1"
observed_value = 0

[[record]]
compound = "C[C@@H]1CCN(C(=O)CO)C[C@@H]1N(C)c1ncnc2[nH]ccc12"
observed_value = 17

